Cited source: paper PMC12209991

ASSAY: Single ascending dose (SAD) pharmacokinetics in healthy volunteers
Type: in vivo, human
COND: human, plasma, po, 300 mg, single oral dose 300 mg, plasma; read-out: Cmax, mean (SD)
OBSERVED_PROPERTY: Cmax (ng/mL)

MOL	UNIT_INFO	MEASURED_RESULT
CC(=O)N1CCC(COc2cc(F)c3c(=O)[nH]c(CSC4CCOCC4)nc3c2)CC1	ng/mL	771

* * *

ASSAY: Food effect (high-fat breakfast) on RBN-3143 pharmacokinetics, cross-over
Assay type: in vivo, human
COND: human, plasma, po, 500 mg, single 500 mg oral dose, fasted state; read-out: Median Tmax

MOL	UNIT_INFO	Tmax
CC(=O)N1CCC(COc2cc(F)c3c(=O)[nH]c(CSC4CCOCC4)nc3c2)CC1	h	2
